- target or test system: T1, Plasmodium falciparum Histidine Rich Protein-2 (Plasmodium falciparum)
- T1 construct: the construct used in the assay is not described; also called Pf.HRP-2
- T1 chain: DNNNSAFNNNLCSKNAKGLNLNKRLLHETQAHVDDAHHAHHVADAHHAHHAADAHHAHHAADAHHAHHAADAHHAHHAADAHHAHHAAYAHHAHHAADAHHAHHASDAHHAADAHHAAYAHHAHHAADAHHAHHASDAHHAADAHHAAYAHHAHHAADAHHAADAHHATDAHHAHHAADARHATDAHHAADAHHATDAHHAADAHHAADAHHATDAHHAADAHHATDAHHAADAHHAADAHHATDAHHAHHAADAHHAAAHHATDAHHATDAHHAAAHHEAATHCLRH
- experimental protocol: assay not described; biligand cy(YKYYR)-linker-cy(GWNVDL)
pEC50: −log10 of the molar value. Ends that are not written are not given here.
measure: pEC50

binder	measure	value observed
cy(YKYYR)-linker-cy(GWNVDL) (designed binder, not fully specified (bridges); printed as cy(YKYYR)-linker-cy(GWNVDL), also called The resultant biligand) peptide 1: YKYYR peptide 2: GWNVDL	pEC50	9.27
